molecular target: human ether-à-go-go-related gene (hERG) potassium channel (human); experiment: primary screen, population patch clamp on CHO cells stably expressing hERG; higher = less effect of the substance;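 note: peak tail current of the secondary pulse compared with the same well before compound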
Out of some 310,000 compounds screened, about 14,000 (4.5%) showed an effect of 50% or more. The effect is printed as a negative number. The full list was thinned out, with strong results kept by preference.
quantityMeasured: hERG current change (%, negative = inhibition) at 10uM (%)
I only need the number, in %, no unit after it.

*Q* Answer with the recorded hERG current change (%, negative = inhibition) at 10uM of C/C(CCN1CCc2nc(-c3ccccc3)c(-c3ccccc3)cc2C1)=N\O[C@@H](C)c1cc(-c2c(C)cc(C)cc2C)no1 only.
*A* 4.08

*Q* Answer with the recorded hERG current change (%, negative = inhibition) at 10uM of Cc1cc(C)nc(S/C=C/C(=O)c2ccccc2F)n1 only.
*A* 5.02

*Q* Answer with the recorded hERG current change (%, negative = inhibition) at 10uM of COc1cc(CCC(=O)Nc2nccs2)cc(OC)c1OC only.
*A* 3.1

*Q* Answer with the recorded hERG current change (%, negative = inhibition) at 10uM of C#CC[N+](C)(C)CC#Cc1ccc(C)cc1.[Br-] only.
*A* 6.33

*Q* Answer with the recorded hERG current change (%, negative = inhibition) at 10uM of CN(CC(=O)Nc1ccccc1Cl)C(=O)CN1C(=O)NC(c2ccccc2)(c2ccccc2)C1=O only.
*A* -66.8

*Q* Answer with the recorded hERG current change (%, negative = inhibition) at 10uM of Cc1ccc(NC(=O)C2=COCCO2)cc1S(=O)(=O)N1CCOCC1 only.
*A* -0.0399

*Q* Answer with the recorded hERG current change (%, negative = inhibition) at 10uM of CN(CC(=O)Nc1ccccc1Cl)C(=O)COC(=O)CN1C(=O)NC2(CCCC2)C1=O only.
*A* 9.31

*Q* Answer with the recorded hERG current change (%, negative = inhibition) at 10uM of COc1ccc(C2(c3ccc(OC)cc3)NC(=O)N(CC(=O)Nc3ccccc3)C2=O)cc1 only.
*A* 28.6

*Q* Answer with the recorded hERG current change (%, negative = inhibition) at 10uM of CC[N+](CC)(CC#CCO)CC#Cc1ccccc1.[Br-] only.
*A* 33.7

* * *

molecular target: human ether-à-go-go-related gene (hERG) potassium channel (human, UniProt Q12809); experiment: primary screen, population patch clamp on CHO cells stably expressing hERG; higher = less effect of the substance;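 note: peak tail current of the secondary pulse compared with the same well before compound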
Sequence (Q12809 whole entry, looked up): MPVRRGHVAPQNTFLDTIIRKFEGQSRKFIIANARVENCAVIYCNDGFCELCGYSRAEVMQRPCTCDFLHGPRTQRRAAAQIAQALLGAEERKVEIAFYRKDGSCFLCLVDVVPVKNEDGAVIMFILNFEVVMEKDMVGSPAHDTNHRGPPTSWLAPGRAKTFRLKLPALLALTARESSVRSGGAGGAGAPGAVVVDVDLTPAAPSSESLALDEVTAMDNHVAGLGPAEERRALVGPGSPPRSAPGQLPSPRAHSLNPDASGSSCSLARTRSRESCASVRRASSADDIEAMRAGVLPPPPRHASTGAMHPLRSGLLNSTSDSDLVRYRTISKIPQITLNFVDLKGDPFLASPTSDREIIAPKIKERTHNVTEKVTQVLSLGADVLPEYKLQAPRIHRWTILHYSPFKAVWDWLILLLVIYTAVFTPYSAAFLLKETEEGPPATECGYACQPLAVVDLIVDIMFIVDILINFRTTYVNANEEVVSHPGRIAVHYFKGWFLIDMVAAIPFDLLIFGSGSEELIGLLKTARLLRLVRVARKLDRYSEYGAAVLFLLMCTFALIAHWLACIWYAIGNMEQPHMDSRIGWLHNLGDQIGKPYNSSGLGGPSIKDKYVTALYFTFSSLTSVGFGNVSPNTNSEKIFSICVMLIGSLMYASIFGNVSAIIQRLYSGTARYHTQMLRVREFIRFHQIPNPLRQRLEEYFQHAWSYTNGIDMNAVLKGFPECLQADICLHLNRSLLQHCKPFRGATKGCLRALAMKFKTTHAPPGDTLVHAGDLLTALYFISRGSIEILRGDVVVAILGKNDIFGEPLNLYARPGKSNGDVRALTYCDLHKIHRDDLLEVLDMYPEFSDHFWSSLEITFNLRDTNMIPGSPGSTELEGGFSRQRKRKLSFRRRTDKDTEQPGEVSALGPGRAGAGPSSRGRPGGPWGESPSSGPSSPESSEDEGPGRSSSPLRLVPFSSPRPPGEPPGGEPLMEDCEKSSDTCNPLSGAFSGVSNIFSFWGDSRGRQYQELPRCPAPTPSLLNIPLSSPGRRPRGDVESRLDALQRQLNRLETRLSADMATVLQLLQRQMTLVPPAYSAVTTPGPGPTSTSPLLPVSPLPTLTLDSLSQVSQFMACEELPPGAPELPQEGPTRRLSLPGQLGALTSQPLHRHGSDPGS
Among all 310,000 compounds or so, about 14,000 (4.5%) showed an effect of 50% or more. The effect is printed as a negative number. This excerpt belongs to a sample that is enriched for strong results.
quantityMeasured: hERG current change (%, negative = inhibition) at 10uM (%)
I only need the number, in %, no unit after it.

*Q* Answer with the recorded hERG current change (%, negative = inhibition) at 10uM of Cc1nc2c(-c3ccc(F)cc3)c(C)nn2c(C)c1CCC(=O)Nc1ccccc1F only.
*A* -10.7

*Q* Answer with the recorded hERG current change (%, negative = inhibition) at 10uM of O=S(=O)(Nc1ccc2ccccc2c1)c1ccccc1 only.
*A* 1.5

*Q* Answer with the recorded hERG current change (%, negative = inhibition) at 10uM of Cc1nc2c(-c3ccc(F)cc3)c(C)nn2c(C)c1CCC(=O)N1CCN(c2ccc(F)cc2)CC1 only.
*A* -74.6

*Q* Answer with the recorded hERG current change (%, negative = inhibition) at 10uM of c1ccc(C2(c3ccccc3)OCC(Cn3cncn3)O2)cc1 (stereo not drawn) only.
*A* -0.819

*Q* Answer with the recorded hERG current change (%, negative = inhibition) at 10uM of CCOC(=O)N1CCc2c(sc(NC(=O)c3ccc(S(=O)(=O)N4CCCC4)cc3)c2C#N)C1 only.
*A* 19.3

*Q* Answer with the recorded hERG current change (%, negative = inhibition) at 10uM of Cc1ccc(C(=O)NCCNC(=O)c2ccccc2)cc1 only.
*A* 8.24

*Q* Answer with the recorded hERG current change (%, negative = inhibition) at 10uM of Cc1noc(/C=C/c2cccs2)c1S(=O)(=O)N1CCC(C(=O)NCCCN2CCC(C)CC2)CC1 only.
*A* -83.7

*Q* Answer with the recorded hERG current change (%, negative = inhibition) at 10uM of CN(C(=O)COC(=O)C1c2ccccc2Oc2ccccc21)C1CCS(=O)(=O)C1 (stereo not drawn) only.
*A* 4.56

*Q* Answer with the recorded hERG current change (%, negative = inhibition) at 10uM of O=C(NCCN1C(=O)S/C(=C\c2ccccc2F)C1=O)C1CCN(S(=O)(=O)c2cccs2)CC1 only.
*A* -57.2
